Source of measurements: patent US11198713B2

target: biotinylated beta-catenin (Homo sapiens, UniProt P35222); experiment: Surface Plasmon Resonance (Biacore); type: binding; details: Biacore, biotinylated beta-catenin; read-out: Kd
Sequence (P35222 whole entry): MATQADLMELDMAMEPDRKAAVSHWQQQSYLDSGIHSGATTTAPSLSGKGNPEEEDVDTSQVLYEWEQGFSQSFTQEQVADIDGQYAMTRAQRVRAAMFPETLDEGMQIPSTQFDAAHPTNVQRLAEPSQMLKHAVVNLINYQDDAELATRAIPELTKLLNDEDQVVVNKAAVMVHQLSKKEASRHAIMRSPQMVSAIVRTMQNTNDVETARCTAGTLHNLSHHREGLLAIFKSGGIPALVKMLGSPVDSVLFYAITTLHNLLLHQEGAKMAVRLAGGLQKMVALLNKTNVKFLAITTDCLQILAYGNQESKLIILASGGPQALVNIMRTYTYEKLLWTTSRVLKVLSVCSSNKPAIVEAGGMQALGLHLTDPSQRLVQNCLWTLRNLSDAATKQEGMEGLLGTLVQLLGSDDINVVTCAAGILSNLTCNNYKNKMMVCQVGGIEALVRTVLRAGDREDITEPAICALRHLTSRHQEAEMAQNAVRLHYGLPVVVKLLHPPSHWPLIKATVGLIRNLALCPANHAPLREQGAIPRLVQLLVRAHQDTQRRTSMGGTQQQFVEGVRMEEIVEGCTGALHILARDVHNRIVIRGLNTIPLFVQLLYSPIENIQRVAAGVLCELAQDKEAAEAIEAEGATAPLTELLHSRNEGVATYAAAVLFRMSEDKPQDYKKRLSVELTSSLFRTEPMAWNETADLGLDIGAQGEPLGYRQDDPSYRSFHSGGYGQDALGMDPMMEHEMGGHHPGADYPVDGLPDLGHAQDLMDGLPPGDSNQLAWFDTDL
Numbered stars: 1 amine (or outer) side, 2 acyl side, 3 side chain; on linkers, the order of the positions; unused ones are H or OH. Bridge positions count the residues as written; N and C are the ends. Square brackets hold non-standard residues; d marks the D form. Peptide text beside a SMILES is read from it. dαMeDab(Me) = CN(CC[C@@](C)(N[*:1])C(=O)[*:2])[*:3]; X1 = O=C([C@]1(N[*:1])CCN([*:3])C1)[*:2]; X2 = O=C(OCC=CCOC(=O)[*:2])[*:1]
Below, each of the compounds is paired with its reported Kd value.

As a guide, the following entries are already answered.
>  <Compound>
CC[C@H](C)[C@@H]1NC(=O)[C@](C)(NC(=O)[C@H](CCC(N)=O)NC(=O)[C@@H]2CCCN2C(C)=O)CCC=CCOC(=O)N2CC[C@](C(=O)N[C@@H](Cc3c[nH]cn3)C(=O)N[C@H](C(=O)N[C@@H](CCCNC(=N)N)C(=O)N[C@@H](CCCNC(=N)N)C(=O)N[C@H](C(=O)N[C@@H](Cc3c[nH]c4ccccc34)C(=O)N[C@@H](CCCNC(=N)N)C(N)=O)C(C)C)C(C)C)(C2)NC(=O)[C@H](CC(=O)O)NC(=O)[C@H](CC(C)C)NC1=O (single isomer, unassigned) [FP-0765c, Ac-P-Q-R4-I-L-D-PR-H-V-R-R-V-W-R-NH2]

>  <Kd>
~13 nM

$$$$
>  <Compound>
CC[C@H](C)[C@@H]1NC(=O)C2(NC(=O)[C@H](CCC(N)=O)NC(=O)[C@@H]3CCCN3C(C)=O)CN(C2)C(=O)OCC=CCCCC[C@](C)(C(=O)N[C@@H](Cc2c[nH]cn2)C(=O)N[C@H](C(=O)N[C@@H](CCCNC(=N)N)C(=O)N[C@@H](CCCNC(=N)N)C(=O)N[C@H](C(=O)N[C@@H](Cc2c[nH]c3ccccc23)C(=O)N[C@@H](CCCNC(=N)N)C(N)=O)C(C)C)C(C)C)NC(=O)[C@H](CC(=O)O)NC(=O)[C@H](CC(C)C)NC1=O (single isomer, unassigned) [FP-0725c, Ac-P-Q-Az-I-L-D-R6-H-V-R-R-V-W-R-NH2]

>  <Kd>
~22 nM

$$$$
>  <Compound>
CC[C@H](C)[C@@H]1NC(=O)[C@H](Cc2c[nH]cn2)NC(=O)[C@H](C)NC(=O)[C@H](CC(=O)O)NC(=O)[C@H](CC(C)C)NC(=O)[C@H]([C@@H](C)CC)NC(=O)[C@](C)(NC(=O)[C@H](C)NC(C)=O)CCCCCCC=CCOC(=O)N2CC[C@@](C(=O)N[C@@H](CCCNC(=N)N)C(=O)N[C@H](C(=O)N[C@@H](Cc3c[nH]c4ccccc34)C(N)=O)C(C)C)(C2)NC1=O (single isomer, unassigned) [FPO217c Isomer 2, Ac-AR8ILDAHIMBRVW (SEQ ID NO: 280)]

>  <Kd>
2 nM

$$$$

Lab note: measured Kd of CC[C@H](C)[C@@H]1NC(=O)[C@@]2(NC(=O)[C@H](CCC(N)=O)NC(=O)[C@@H]3CCCN3C(C)=O)CCN(CC=CCCCC[C@](C)(C(=O)N[C@@H](Cc3c[nH]cn3)C(=O)N[C@H](C(=O)N[C@@H](CCCNC(=N)N)C(=O)N[C@@H](CCCNC(=N)N)C(=O)N[C@H](C(=O)N[C@@H](Cc3c[nH]c4ccccc34)C(=O)N[C@@H](CCCNC(=N)N)C(N)=O)C(C)C)C(C)C)NC(=O)[C@H](CC(=O)O)NC(=O)[C@H](CC(C)C)NC1=O)C2 (single isomer, unassigned) [FP-0745a] was ~34 nM

Lab note: measured Kd of CC[C@H](C)[C@@H]1NC(=O)[C@@](C)(NC(=O)[C@H](CCC(N)=O)NC(=O)[C@@H]2CCCN2C(C)=O)CCCC=CCCC[C@@](C)(C(=O)N[C@@H](Cc2c[nH]cn2)C(=O)N[C@H](C(=O)N[C@@H](CCCNC(=N)N)C(=O)N[C@@H](CCCNC(=N)N)C(=O)N[C@H](C(=O)N[C@@H](Cc2c[nH]c3ccccc23)C(=O)N[C@@H](CCCNC(=N)N)C(N)=O)C(C)C)C(C)C)NC(=O)[C@H](CC(=O)O)NC(=O)[C@H](CC(C)C)NC1=O (single isomer, unassigned) [FP-0787c] was ~14 nM

Lab note: measured Kd of CC[C@H](C)[C@@H]1NC(=O)[C@H](Cc2c[nH]cn2)NC(=O)[C@H](C)NC(=O)[C@H](CC(=O)O)NC(=O)[C@H](CC(C)C)NC(=O)[C@H]([C@@H](C)CC)NC(=O)[C@](C)(NC(=O)[C@H](C)NC(C)=O)CCN(C)C(=O)OCC=CCOC(=O)N2CC[C@@](C(=O)N[C@@H](CCCNC(=N)N)C(=O)N[C@H](C(=O)N[C@@H](Cc3c[nH]c4ccccc34)C(N)=O)C(C)C)(C2)NC1=O [FP0597c, Ac-A-MG-I-L-D-A-H-I-MB-R-V-W-NH2] (Ac-A[dαMeDab(Me)]ILDAHI[X1]RVW-NH2; linker 2-9 via X2) was 7 nM

Lab note: measured Kd of CC[C@H](C)[C@@H]1NC(=O)[C@](C)(NC(=O)[C@H](CCC(N)=O)NC(=O)[C@@H]2CCCN2C(C)=O)CCCC=CCOC(=O)N2CC[C@](C(=O)N[C@@H](Cc3c[nH]cn3)C(=O)N[C@H](C(=O)N[C@@H](CCCNC(=N)N)C(=O)N[C@@H](CCCNC(=N)N)C(=O)N[C@H](C(=O)N[C@@H](Cc3c[nH]c4ccccc34)C(=O)N[C@@H](CCCNC(=N)N)C(N)=O)C(C)C)C(C)C)(C2)NC(=O)[C@H](CC(=O)O)NC(=O)[C@H](CC(C)C)NC1=O (single isomer, unassigned) [FP-0766c, Ac-P-Q-R5-I-L-D-PR-H-V-R-R-V-W-R-NH2] was ~7 nM

Lab note: measured Kd of CC[C@H](C)[C@@H]1NC(=O)[C@](C)(NC(=O)[C@H](C)NC(=O)[C@@H]2CCCN2C(C)=O)CCCCCCC=CCOC(=O)N2CC[C@@](C(=O)N[C@@H](CCCNC(=N)N)C(=O)N[C@H](C(=O)N[C@@H](Cc3c[nH]c4ccccc34)C(N)=O)C(C)C)(C2)NC(=O)[C@H](C(C)C)NC(=O)[C@H](Cc2c[nH]cn2)NC(=O)[C@H](C)NC(=O)[C@H](CC(=O)O)NC(=O)[C@H](CC(C)C)NC1=O [FP0025c, Ac-P-A-R8-I-L-D-A-H-V-MB-R-V-W-NH2] was 15 nM

Lab note: measured Kd of CC[C@H](C)[C@@H]1NC(=O)[C@@](C)(NC(=O)[C@H](CCC(N)=O)NC(=O)[C@@H]2CCCN2C(C)=O)CCCCCC=CCN2CC(C(=O)N[C@@H](Cc3c[nH]cn3)C(=O)N[C@H](C(=O)N[C@@H](CCCNC(=N)N)C(=O)N[C@@H](CCCNC(=N)N)C(=O)N[C@H](C(=O)N[C@@H](Cc3c[nH]c4ccccc34)C(=O)N[C@@H](CCCNC(=N)N)C(N)=O)C(C)C)C(C)C)(C2)NC(=O)[C@H](CC(=O)O)NC(=O)[C@H](CC(C)C)NC1=O (single isomer, unassigned) [FP-0738a] was ~43 nM
